Hey, just so you know, these numbers are from patent US8389247B2.

# Assay summary: Outcome variables of patients on each psychotropic drug broken down by demographic factors (Covariates tables)
# Format: in vivo, human
# Measurement conditions: patients on the named drug
// returns false (0) unless LDL is strictly below 100, in which case true (1)

| Mol smiles | Class name |
| --- | --- |
| O=C1CCc2ccc(OCCCCN3CCN(c4cccc(Cl)c4Cl)CC3)cc2N1 | true (1) |
| Cc1nc2n(c(=O)c1CCN1CCC(c3noc4cc(F)ccc34)CC1)CCCC2 | true (1) |
| Cc1cc2c(s1)Nc1ccccc1N=C2N1CCN(C)CC1 | false (0) |
| OCCOCCN1CCN(C2=Nc3ccccc3Sc3ccccc32)CC1 | true (1) |

Then there is this compound:
Exam item: LDL under 100? Item: "O=C1Cc2cc(CCN3CCN(c4nsc5ccccc45)CC3)c(Cl)cc2N1"
Marked response: true (1)
